These entries and their values trace back to PubChem BioAssay (NCI).

System: SK-MEL-2 melanoma
Assay: NCI tumour cell line growth inhibition, 48 h
endpointLabel: TGI (µM)
// return numeric value only (unit: µM, not printed)

Recorded results for 6 molecules are shown here.
molecule	TGI [µM]
CCCN1CCC(c2ccc(Nc3nc(Nc4cc(F)ccc4C(N)=O)c4cc[nH]c4n3)c(OC)c2)CC1	5.78
O=C1C(S(=O)(=O)c2ccccc2)=C(CS(=O)(=O)c2ccccc2)[C@@H](OCc2ccccc2)[C@@H]1OCc1ccccc1	33.5
CCCCCCCCOC(=O)c1cc([N+](=O)[O-])c(Sc2ncnc3nc[nH]c23)c([N+](=O)[O-])c1	17.7
CN(C)CCNC(=O)NC[C@H]1CC[C@@H]2[C@H](O1)c1cc(C(F)(F)F)ccc1N[C@H]2c1ccccc1	2.32
COC1C(O)C(C)OC(OC2CCC3(C)C(CCC4C3C(O)CC3(C)C(C5=CC(=O)OC5)CCC43O)C2)C1O (configuration not stated)	1.59
O=[N+]([O-])c1ccc(Sc2ccncn2)c([N+](=O)[O-])c1	8.96

Proceed to the following item.
Requested field: TGI. Item: `COc1ccc(/C(=N\Nc2ccccn2)c2ccccn2)cc1`
30.2
